Target: SIRT6 protein (Gallus gallus)
pKd: −log10 of the molar value.
quantity: pKd

- O=c1cc(-c2ccc(O)cc2)oc2c([C@@H]3O[C@H](CO)[C@@H](O)[C@H](O)[C@H]3O)c(O)cc(O)c12: 4.82
- O=c1c(O)c(-c2ccc(O)cc2)oc2cc(O)cc(O)c12: 5.41
- O=c1cc(-c2ccc(O)c(O)c2)oc2cc(O)cc(O)c12: 5.75
- O=c1c(O)c(-c2ccc(O)c(O)c2)oc2cc(O)cc(O)c12: 5.39

From: paper PMC4167792
